# Tested Target: T1, PUF4 RNA-binding domain (Saccharomyces cerevisiae, UniProt P25339 537-888)
# T1 sequence: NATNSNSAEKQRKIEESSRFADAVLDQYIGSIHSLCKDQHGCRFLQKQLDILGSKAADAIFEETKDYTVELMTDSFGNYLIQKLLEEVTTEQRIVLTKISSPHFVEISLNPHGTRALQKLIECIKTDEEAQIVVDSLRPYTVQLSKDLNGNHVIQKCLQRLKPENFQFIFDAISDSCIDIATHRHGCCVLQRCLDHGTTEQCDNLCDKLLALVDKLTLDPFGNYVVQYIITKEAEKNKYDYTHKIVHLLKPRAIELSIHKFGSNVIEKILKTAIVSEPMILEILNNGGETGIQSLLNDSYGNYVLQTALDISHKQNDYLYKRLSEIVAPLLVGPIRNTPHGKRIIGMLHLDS
# Test Details: Mg; RNA-MaP; 20 mM Na-HEPES pH 7.4, 30 mM KOAc, 0.75 mM MgCl2, 0.1% Tween-20, 5% glycerol, 0.1 mg/mL BSA, 2 mM DTT; 25 C; 0.0125-409.6 nM protein
# Condition Details: tags: N-His6-TEV cleaved; C-SNAP kept, Cy3B-labelled; label: tethered on chip by stalled RNA polymerase
Give pKd for every item shown.
API: returns pKd as number; meaning -log10 of concentration in mol/L.

Fill in reported pKd for this entry: UCUCUUUGUAGUCUUAUCUCUU (ssRNA) [Ib_S1_P5E.1_K5.1_C5.1_H5.1_A5.1_[T5G]_[A7C]_F5.1_T5.1]
7.03

Give recorded pKd. Id_ii_S2_P3E.3_K3.2_C3.2_[T-1C]_H3.2_A3.1_F3.1_T3.2_[T9A]_[A10T] (ssRNA) RNA: UUUGAUUAAUAUGAUAUCGUUCUUUCUCCUAUAUAUAAUUUCUUUCUCGAUAUCAUAUUAAUCUUU
7.03

Report pKd, nothing else, for this binder: Id_ii_S2_P3E.3_K3.2_C3.2_[T-1A]_H3.2_A3.1_F3.1_T3.2_[T9A]_[A10C] (ssRNA) RNA: UUUGAUUAAUAUGAUAUCGUUCUUUCUCAUAUAUAUAACUUCUUUCUCGAUAUCAUAUUAAUCUUU
6.66

Provide pKd value for the following binder: UCUCUUUAUGUAUUAUUAUCUCUCUU (ssRNA) [Id_ii_S1_P5E.2_K5.1_C5.2_[C-2T]_[T-1A]_H5.1_A5.1_F5.1_T5.2_[A12C]]
8.09

Respond only with pKd recorded for UCUCUUUGUCUUACUAUCUCUU (ssRNA) [Ib_S1_P5E.1_K5.1_C5.1_H5.1_[A4C]_A5.1_F5.1_[T8C]_T5.1]
7.06

Item UCUCUUUAUAUAUUUCUCUU (ssRNA) [Ib_S1_P3E.1_K3.1_C3.1_H3.1_[G2A]_A3.1_F3.1_[A8T]_T3.1] : provide pKd
6.16

Return pKd (reported value) for this binder: UCUCUUUGUAACGUAUCUCUU (ssRNA) [Ic_S1_P4E.1_K4.1_C4.1_H4.1_A4.1_[T5A]_[A6C]_[T7G]_F4.1_T4.1]
7.76

Complete the entry with pKd for UCUCUUCAUAUAUAUUAAUUCUCUU (ssRNA) [Id_ii_S1_P4E.3_K4.2_C4.2_[T-1A]_H4.2_A4.1_F4.1_T4.2_[G10A]]
7.44

Identify measured pKd corresponding to UCUCUUUGUAGUCUAUCUCUU (ssRNA) [Ic_S1_P4E.1_K4.1_C4.1_H4.1_A4.1_[T5G]_[A6T]_[T7C]_F4.1_T4.1]
7.68

Look up pKd of Ib_S2_P3E.1_K3.1_C3.1_H3.1_[A4C]_A3.1_[A6T]_F3.1_T3.1 (ssRNA) RNA: UUUGAUUAAUAUGAUAUCGUUCUUUCUUGUCUUUAUUCUUUCUCGAUAUCAUAUUAAUCUUU and report it.
5.92

Return the recorded pKd value; entry: Ib_S4_P3E.1_K3.1_C3.1_H3.1_[G2T]_[A4G]_A3.1_F3.1_T3.1 (ssRNA) RNA: UUUGACAACUGAUCGUUCUUUCUUUUGUAUAUUCUUUCUCGAUCAGUUGUCUUU
8.48

State, in one line, measured pKd of Ie_S4_P4E.1_K4.1_C4.1_H4.1_[+3CCCTT]_A4.1_F4.1_T4.1 (ssRNA) RNA: UUUGACAACUGAUCGUUCUUUCUUGUCCCUUAUAUUAUUCUUUCUCGAUCAGUUGUCUUU
7.29

Tell me its pKd given Ib_S4_P4E.1_K4.1_C4.1_H4.1_[A4T]_A4.1_F4.1_[A9C]_T4.1 (ssRNA) RNA: UUUGACAACUGAUCGUUCUUUCUUGUUUAUUCUUCUUUCUCGAUCAGUUGUCUUU as the entry.
6.39

Identify pKd associated with the binder Ie_S2_P4E.1_K4.1_C4.1_H4.1_[+4CCT]_A4.1_F4.1_T4.1 (ssRNA) RNA: UUUGAUUAAUAUGAUAUCGUUCUUUCUUGUACCUUAUUAUUCUUUCUCGAUAUCAUAUUAAUCUUU
8.95
